- Experiment description: Clinical drug-drug interaction study: plasma pharmacokinetics of dextromethorphan and dextrorphan with and without emvododstat
- Assay type: in vivo, human
- Assay context: human, oral; dextrorphan in plasma after 30 mg dextromethorphan alone, geometric mean (%CV)
Attribute measured: Cmax (ng/mL)
Give bare numbers, in ng/mL.

For the molecule CN1CC[C@@]23CCCC[C@@H]2[C@@H]1Cc1ccc(O)cc13 , what Cmax is on record?
5

* * *

- Experiment description: Clinical drug-drug interaction study: plasma pharmacokinetics of dextromethorphan and dextrorphan with and without emvododstat
- Type: in vivo, human
- Assay context: human, oral; dextrorphan in plasma after 30 mg dextromethorphan with 250 mg emvododstat, geometric mean (%CV)
Attribute measured: Cmax (ng/mL)
Numbers only, in ng/mL.

Field request: Cmax | item: CN1CC[C@@]23CCCC[C@@H]2[C@@H]1Cc1ccc(O)cc13
4.05

* * *

- Experiment description: Clinical drug-drug interaction study: plasma pharmacokinetics of dextromethorphan and dextrorphan with and without emvododstat
- Assay type: in vivo, human
- Assay context: human, plasma, oral, dextrorphan, alone and in combination with emvododstat; read-out: Effective T1/2
Attribute measured: half-life

Look up half-life for this compound: CN1CC[C@@]23CCCC[C@@H]2[C@@H]1Cc1ccc(O)cc13
6 to 8 h

* * *

- Experiment description: Clinical drug-drug interaction study: plasma pharmacokinetics of dextromethorphan and dextrorphan with and without emvododstat
- Assay type: in vivo, human
- Assay context: human, plasma, oral; dextrorphan, dextromethorphan given concurrently with emvododstat; read-out: AUC0-inf
Attribute measured: AUC(0-inf) (ng·h/mL)
Numbers only, in ng·h/mL.

Param item = CN1CC[C@@]23CCCC[C@@H]2[C@@H]1Cc1ccc(O)cc13 ; retrieve measured AUC(0-inf).
30.9

* * *

- Experiment description: Clinical drug-drug interaction study: plasma pharmacokinetics of dextromethorphan and dextrorphan with and without emvododstat
- Assay type: in vivo, human
- Assay context: human; dextromethorphan in plasma, 30 mg oral dextromethorphan alone (day 1), healthy subjects, geometric mean (%CV)
Attribute measured: Cmax (ng/mL)
Numbers only, in ng/mL.

Given COc1ccc2c(c1)[C@]13CCCC[C@@H]1[C@H](C2)N(C)CC3 [Dextromethorphan, dextromethorphan, reference compound] , state its recorded Cmax.
2.01

* * *

- Experiment description: Clinical drug-drug interaction study: plasma pharmacokinetics of dextromethorphan and dextrorphan with and without emvododstat
- Type: in vivo, human
- Assay context: human, plasma, oral; dextrorphan, 30 mg dextromethorphan capsules alone; read-out: AUC0-inf
Attribute measured: AUC(0-inf) (ng·h/mL)
One number for each entry, in ng·h/mL.

Dear colleague, I am looking for the recorded AUC(0-inf) of the following compound: CN1CC[C@@]23CCCC[C@@H]2[C@@H]1Cc1ccc(O)cc13
33.2

* * *

- Experiment description: Clinical drug-drug interaction study: plasma pharmacokinetics of dextromethorphan and dextrorphan with and without emvododstat
- Format: in vivo, human
- Assay context: human, oral; dextromethorphan in plasma, 30 mg dextromethorphan with 250 mg emvododstat (day 5), geometric mean (%CV)
Attribute measured: AUC(0-t)
Respond with a number, then the unit of measure.

Reported AUC(0-t) for COc1ccc2c(c1)[C@]13CCCC[C@@H]1[C@H](C2)N(C)CC3 [Dextromethorphan, dextromethorphan, reference compound] : what is it?
157 ng·h/mL

* * *

- Experiment description: Clinical drug-drug interaction study: plasma pharmacokinetics of dextromethorphan and dextrorphan with and without emvododstat
- Format: in vivo, human
- Assay context: human; dextromethorphan in plasma, 30 mg oral dextromethorphan alone (day 1), median (range); read-out: Tmax
Attribute measured: Tmax (h)
Answers are plain numbers, in h.

Tmax lookup needed for COc1ccc2c(c1)[C@]13CCCC[C@@H]1[C@H](C2)N(C)CC3 [Dextromethorphan, dextromethorphan, reference compound] , thanks.
4

* * *

- Experiment description: Clinical drug-drug interaction study: plasma pharmacokinetics of dextromethorphan and dextrorphan with and without emvododstat
- Format: in vivo, human
- Assay context: human, plasma, oral; dextrorphan, 30 mg dextromethorphan capsules alone
Attribute measured: AUC(0-t) (ng·h/mL)
Numbers only, in ng·h/mL.

Would you mind telling me what AUC(0-t) value was observed for CN1CC[C@@]23CCCC[C@@H]2[C@@H]1Cc1ccc(O)cc13 ?
31.9

* * *

- Experiment description: Clinical drug-drug interaction study: plasma pharmacokinetics of dextromethorphan and dextrorphan with and without emvododstat
- Assay type: in vivo, human
- Assay context: human, plasma, oral, 30 mg, dextrorphan in plasma after 30 mg dextromethorphan alone, geometric mean (%CV); read-out: T1/2 (converted)
Attribute measured: half-life (h)
One number for each entry, in h.

Please report the recorded half-life for CN1CC[C@@]23CCCC[C@@H]2[C@@H]1Cc1ccc(O)cc13 .
5.86

* * *

- Experiment description: Clinical drug-drug interaction study: plasma pharmacokinetics of dextromethorphan and dextrorphan with and without emvododstat
- Format: in vivo, human
- Assay context: human, oral; dextromethorphan in plasma, 30 mg dextromethorphan with 250 mg emvododstat (day 5), median (range); read-out: Tmax
Attribute measured: Tmax (h)
One number for each entry, in h.

Tmax for COc1ccc2c(c1)[C@]13CCCC[C@@H]1[C@H](C2)N(C)CC3 [Dextromethorphan, dextromethorphan, reference compound] ?
4

* * *

- Experiment description: Clinical drug-drug interaction study: plasma pharmacokinetics of dextromethorphan and dextrorphan with and without emvododstat
- Type: in vivo, human
- Assay context: human, plasma, oral, dextromethorphan in plasma, 30 mg dextromethorphan with 250 mg emvododstat (day 5), geometric mean (%CV), n = 16; read-out: T1/2 (converted)
Attribute measured: half-life (h)
One number for each entry, in h.

What half-life value was documented for this compound, COc1ccc2c(c1)[C@]13CCCC[C@@H]1[C@H](C2)N(C)CC3 [Dextromethorphan, dextromethorphan, reference compound] ?
41

* * *

- Experiment description: Clinical drug-drug interaction study: plasma pharmacokinetics of dextromethorphan and dextrorphan with and without emvododstat
- Assay type: in vivo, human
- Assay context: human; dextromethorphan in plasma, 30 mg oral dextromethorphan alone (day 1), geometric mean (%CV); read-out: AUC0-inf
Attribute measured: AUC(0-inf) (ng·h/mL)
Answers are plain numbers, in ng·h/mL.

May I ask what AUC(0-inf) has been recorded for COc1ccc2c(c1)[C@]13CCCC[C@@H]1[C@H](C2)N(C)CC3 [Dextromethorphan, dextromethorphan, reference compound] ?
21.6

* * *

- Experiment description: Clinical drug-drug interaction study: plasma pharmacokinetics of dextromethorphan and dextrorphan with and without emvododstat
- Type: in vivo, human
- Assay context: human, plasma, oral, dextrorphan in plasma after 30 mg dextromethorphan with 250 mg emvododstat, geometric mean (%CV); read-out: T1/2 (converted)
Attribute measured: half-life (h)
Answers are plain numbers, in h.

Look up half-life: CN1CC[C@@]23CCCC[C@@H]2[C@@H]1Cc1ccc(O)cc13
8.41
